biological target: recombinant human ALK enzyme (ALK WT) (Homo sapiens); construct: purchased Carna Biosciences 08-518; assay: ALK WT cell free enzymatic assay (TR-FRET); format: biochemical; settings: compound at 1 μM; 30 min pre-incubation; 1 μM ATP
Where a name gives a salt, the structure may show the parent alone.
property.label: inhibition at 1 µM (%)

{"compound": "NC(=O)N1CCN(c2ccc(-c3cnc4[nH]cc(-c5cnn(Cc6cccc(F)c6)c5)c4c3)cc2)CC1", "readout.unit": "%", "inhibition at 1 µM": 100}
{"compound": "COc1cc(N2CCN(C[C@H](C)O)CC2)ccc1-c1cnc2[nH]cc(-c3cnn(Cc4cccc(F)c4)c3)c2c1", "readout.unit": "%", "inhibition at 1 µM": 97}
{"compound": "C[C@H](O)CN1CCN(c2ccc(-c3cnc4[nH]cc(-c5cnn(Cc6cccc(O)c6)c5)c4c3)cn2)CC1", "readout.unit": "%", "inhibition at 1 µM": 97}
{"compound": "CN1CCC(c2ccc(-c3cnc4[nH]cc(-c5cnn(Cc6cccc(F)c6)c5)c4c3)cc2)CC1", "readout.unit": "%", "inhibition at 1 µM": 100}
{"compound": "Fc1cccc(Cn2cc(-c3c[nH]c4ncc(-c5ccc(N6CCNCC6)nc5)cc34)cn2)c1", "readout.unit": "%", "inhibition at 1 µM": 100}
{"compound": "Cc1nn(Cc2cccc(F)c2)c(C)c1-c1c[nH]c2ncc(-c3ccc(NC4CCNCC4)cc3)cc12", "readout.unit": "%", "inhibition at 1 µM": 100}
{"compound": "C[C@H](O)CN1CCN(c2ccc(-c3cnc4[nH]cc(-c5cnn(CCc6ccccc6)c5)c4c3)cc2)CC1", "readout.unit": "%", "inhibition at 1 µM": 95}
{"compound": "Cc1nn(Cc2cccc(F)c2)cc1-c1c[nH]c2ncc(-c3cccc(N4CCNCC4)c3)cc12", "readout.unit": "%", "inhibition at 1 µM": 98}
{"compound": "CNS(=O)(=O)c1cc(-c2cnc3[nH]cc(-c4c(C)nn(Cc5cccc(F)c5)c4C)c3c2)ccc1OC", "readout.unit": "%", "inhibition at 1 µM": 94}
{"compound": "COCCN1CCN(c2ccc(-c3cnc4[nH]cc(-c5cnn(Cc6cccc(F)c6)c5)c4c3)cn2)CC1", "readout.unit": "%", "inhibition at 1 µM": 100}
{"compound": "COc1ccc(-c2cnc3[nH]cc(-c4cnn(Cc5cccc(F)c5)c4)c3c2)cc1NS(C)(=O)=O", "readout.unit": "%", "inhibition at 1 µM": 96}
{"compound": "Cc1nn(Cc2cccc(F)c2)c(C)c1-c1c[nH]c2ncc(-c3ccc(N4CCNCC4)c(NS(C)(=O)=O)c3)cc12 [Example 58, hydrochloride]", "readout.unit": "%", "inhibition at 1 µM": 100}
{"compound": "OC1CCN(c2ccc(-c3cnc4[nH]cc(-c5cnn(Cc6cccc(F)c6)c5)c4c3)cn2)CC1", "readout.unit": "%", "inhibition at 1 µM": 97}
{"compound": "Cc1c(-c2c[nH]c3ncc(-c4ccc(C5CCNCC5)c(F)c4)cc23)cnn1Cc1cccc(F)c1", "readout.unit": "%", "inhibition at 1 µM": 100}
{"compound": "CN(C)CC(=O)N1CCN(c2ccc(-c3cnc4[nH]cc(-c5cnn(Cc6cccc(F)c6)c5)c4c3)cc2)CC1", "readout.unit": "%", "inhibition at 1 µM": 97}

----------
Target: recombinant human ALK enzyme (ALK WT) (Homo sapiens)
Construct: purchased Carna Biosciences 08-518
Experiment: ALK WT cell free enzymatic assay (TR-FRET)
Type: biochemical
Conditions: compound at 1 μM; 30 min pre-incubation; 1 μM ATP
Protocol: ALK Wild Type (WT) The ALK WT cell free assay was set up to evaluate the effects of these compounds as inhibitors of ALK enzyme. […] TR-FRET (Time resolved fluorescence resonance energy transfer) detection technology was used for the read out. […] The TR-FRET signal (Excitation at 340 nm, Emission at 615 nm and 665 nm) was read with 50 μs delay time on Victor^3 V fluorimeter. The data is calculated using the ratio of reading at 665 nM to 615 nM. […]
property.label: inhibition at 1 µM (%)

{"mol": "CC(=O)Nc1cccc(Cn2nc(C)c(-c3c[nH]c4ncc(-c5ccc(N6CCNCC6)cc5)cc34)c2C)c1", "readout.unit": "%", "inhibition at 1 µM": 89}
{"mol": "Cc1c(-c2c[nH]c3ncc(-c4ccc(N5CCN(C[C@H](C)O)CC5)nc4)cc23)cnn1Cc1cccc(F)c1", "readout.unit": "%", "inhibition at 1 µM": 96}
{"mol": "CCS(=O)(=O)N1CCN(c2ccc(-c3cnc4[nH]cc(-c5cnn(Cc6cccc(F)c6)c5)c4c3)cn2)CC1", "readout.unit": "%", "inhibition at 1 µM": 91}
{"mol": "CC(=O)N1CCN(c2ccc(-c3cnc4[nH]cc(-c5c(C)nn(Cc6cccc(F)c6)c5C)c4c3)cc2)CC1", "readout.unit": "%", "inhibition at 1 µM": 91}
{"mol": "Cc1nn(Cc2cccc(F)c2)c(C)c1-c1c[nH]c2ncc(-c3ccc(N4CCOCC4)cc3)cc12", "readout.unit": "%", "inhibition at 1 µM": 80}
{"mol": "Fc1cccc(Cn2cc(-c3c[nH]c4ncc(-c5ccc(C6CCNCC6)nc5)cc34)cn2)c1", "readout.unit": "%", "inhibition at 1 µM": 100}
{"mol": "Cc1nn(Cc2cccc(F)c2)c(C)c1-c1c[nH]c2ncc(-c3cccc(CC4CCNCC4)c3)cc12", "readout.unit": "%", "inhibition at 1 µM": 99}

----------
biological target: recombinant human ALK enzyme (ALK WT) (Homo sapiens, UniProt Q9UM73); construct: purchased Carna Biosciences 08-518; assay: ALK WT cell free enzymatic assay (TR-FRET); type: biochemical; conditions: compound at 100 nM; 30 min pre-incubation; 1 μM ATP
Sequence (Q9UM73 1058-1620 limits assumed): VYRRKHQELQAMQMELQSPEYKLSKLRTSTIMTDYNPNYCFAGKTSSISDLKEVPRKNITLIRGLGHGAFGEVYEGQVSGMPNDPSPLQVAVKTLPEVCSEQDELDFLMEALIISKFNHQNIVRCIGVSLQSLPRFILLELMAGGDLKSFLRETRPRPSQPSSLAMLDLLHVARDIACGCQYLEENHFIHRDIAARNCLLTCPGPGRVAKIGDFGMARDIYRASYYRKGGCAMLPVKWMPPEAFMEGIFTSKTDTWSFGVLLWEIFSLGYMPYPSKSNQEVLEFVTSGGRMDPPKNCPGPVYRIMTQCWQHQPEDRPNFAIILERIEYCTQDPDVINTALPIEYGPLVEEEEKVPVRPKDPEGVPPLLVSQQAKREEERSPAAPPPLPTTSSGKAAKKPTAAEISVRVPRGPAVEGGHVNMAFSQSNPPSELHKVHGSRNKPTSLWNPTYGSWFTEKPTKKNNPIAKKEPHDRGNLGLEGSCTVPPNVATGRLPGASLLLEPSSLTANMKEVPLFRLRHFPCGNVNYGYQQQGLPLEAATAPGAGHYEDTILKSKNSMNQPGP
Counter-ions that a name gives are not always drawn.
property.label: inhibition at 0.1 µM (%)

{"molecule": "c1cncc(Cn2cc(-c3c[nH]c4ncc(-c5ccc(N6CCNCC6)cc5)cc34)cn2)c1", "target.system": "recombinant human ALK enzyme (ALK WT) (Homo sapiens, UniProt Q9UM73)", "result.value": 83}
{"molecule": "COc1cc(-c2cnc3[nH]cc(-c4cnn(Cc5cccc(F)c5)c4)c3c2)cnc1N", "target.system": "recombinant human ALK enzyme (ALK WT) (Homo sapiens, UniProt Q9UM73)", "result.value": 94}
{"molecule": "O=C(CO)N1CCN(c2ccc(-c3cnc4[nH]cc(-c5cnn(Cc6cccc(F)c6)c5)c4c3)cn2)CC1", "target.system": "recombinant human ALK enzyme (ALK WT) (Homo sapiens, UniProt Q9UM73)", "result.value": 99}
{"molecule": "C[C@H](O)CN1CCN(c2ccc(-c3cnc4[nH]cc(-c5cnn(Cc6cc(F)cc(F)c6)c5)c4c3)cn2)CC1", "target.system": "recombinant human ALK enzyme (ALK WT) (Homo sapiens, UniProt Q9UM73)", "result.value": 95}
{"molecule": "NC(=O)CN1CCN(c2ccc(-c3cnc4[nH]cc(-c5cnn(Cc6cccc(F)c6)c5)c4c3)cc2)CC1", "target.system": "recombinant human ALK enzyme (ALK WT) (Homo sapiens, UniProt Q9UM73)", "result.value": 95}
{"molecule": "COc1cc(-c2cnc3[nH]cc(-c4c(C)nn(Cc5cccc(F)c5)c4C)c3c2)ccc1N1CCNCC1 [Example 62, hydrochloride]", "target.system": "recombinant human ALK enzyme (ALK WT) (Homo sapiens, UniProt Q9UM73)", "result.value": 87}
{"molecule": "N#CCN1CCN(c2ccc(-c3cnc4[nH]cc(-c5cnn(Cc6cccc(F)c6)c5)c4c3)cn2)CC1", "target.system": "recombinant human ALK enzyme (ALK WT) (Homo sapiens, UniProt Q9UM73)", "result.value": 92}
{"molecule": "COc1cc(-c2cnc3[nH]cc(-c4cnn(Cc5cccc(F)c5)c4)c3c2)ccc1C1CCNCC1", "target.system": "recombinant human ALK enzyme (ALK WT) (Homo sapiens, UniProt Q9UM73)", "result.value": 96}
{"molecule": "Cc1nn(Cc2cc(F)cc(F)c2)c(C)c1-c1c[nH]c2ncc(-c3ccc(N4CCNCC4)cc3)cc12 [Example 43, hydrochloride]", "target.system": "recombinant human ALK enzyme (ALK WT) (Homo sapiens, UniProt Q9UM73)", "result.value": 92}
{"molecule": "CC(=O)N1CCN(c2ccc(-c3cnc4[nH]cc(-c5c(C)nn(Cc6cccc(F)c6)c5C)c4c3)cc2)CC1", "target.system": "recombinant human ALK enzyme (ALK WT) (Homo sapiens, UniProt Q9UM73)", "result.value": 70}
{"molecule": "Cc1nn(Cc2cccc(F)c2)c(C)c1-c1c[nH]c2ncc(-c3ccc(OCCCN(C)C)c(NS(C)(=O)=O)c3)cc12", "target.system": "recombinant human ALK enzyme (ALK WT) (Homo sapiens, UniProt Q9UM73)", "result.value": 96}
{"molecule": "Cc1nn(Cc2cccc(F)c2)cc1-c1c[nH]c2ncc(-c3ccc(C4CCNCC4)cc3)cc12", "target.system": "recombinant human ALK enzyme (ALK WT) (Homo sapiens, UniProt Q9UM73)", "result.value": 97}
{"molecule": "CS(=O)(=O)N1CCN(c2ccc(-c3cnc4[nH]cc(-c5cnn(Cc6cccc(F)c6)c5)c4c3)cn2)CC1", "target.system": "recombinant human ALK enzyme (ALK WT) (Homo sapiens, UniProt Q9UM73)", "result.value": 85}
